# Tested on: KM12 colon
# test: NCI-60 one-dose screen, 48 h (100 = growth as untreated, 0 = no growth, -100 = all killed)
# particulars: 10 µM unless noted
This is part of a sample that, as a whole, favours compounds with a hit. Of some 83,000 tested, about 20% had one in any assay.
readout_type: growth (%)
Please respond with the number in % and leave the unit unwritten.

Please review the entries below; each comes with its answer.
query_smiles: NC(=O)c1cccc(N2Cc3ccccc3OC3=C2C(=O)c2c(O)ccc(O)c2C3=O)c1
test_value: -48.9

query_smiles: COc1cc(NC(=O)CCl)ccc(=O)c1
test_value: 89.6

query_smiles: COC(=O)c1cc(-c2cccs2)c(C#N)c(N)c1C#N
test_value: 108

query_smiles: CCN(CC)S(=O)(=O)c1ccc2[nH]c(=O)cc(C(=O)Nc3ccc(OC)cc3OC)c2c1
test_value: 110

Then this compound:
Assign growth to the following record: CC(=O)/C=C/c1cc2cc(Cl)ccc2[nH]c1=O
60
